Target: T1, human 5T4-His protein (human, UniProt Q13641 32-355)
T1 construct: also called recombinant 5T4 protein (human 5T4-his tag); human 5T4 protein; not shown: His tag
T1 sequence (looked up): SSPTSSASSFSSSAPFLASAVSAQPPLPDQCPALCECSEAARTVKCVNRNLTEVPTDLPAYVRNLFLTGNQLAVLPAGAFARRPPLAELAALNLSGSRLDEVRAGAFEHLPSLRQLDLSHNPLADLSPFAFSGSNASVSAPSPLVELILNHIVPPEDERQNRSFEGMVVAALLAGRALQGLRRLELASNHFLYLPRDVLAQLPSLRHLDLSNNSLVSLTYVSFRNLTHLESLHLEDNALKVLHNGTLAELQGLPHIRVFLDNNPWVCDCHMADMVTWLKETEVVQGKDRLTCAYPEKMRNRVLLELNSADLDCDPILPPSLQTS
Assay: SPR Biacore, Protein A capture
observable: kon (M⁻¹ s⁻¹)
Give bare numbers, in M⁻¹ s⁻¹.

>  <binder>
109H7 chimeric antibody (antibody, V domains shown, chimeric mAb) VH: QVQLQQSGAELMKPGASVKLSCKATGYTFTGYWIEWVKQRPGQGLEWIGETLPGRGSTNYNEKFKGKATFTADTSSNIVYMQLSSLTIEDSAIYYCARGRRDFDYWGQGTTLTVSS VL: DIQMTQTTSSLSASLGDEVTISCSASQGINNYLNWYQQKPDGTVKLLIYYTSSLHSGVPSRFSGSGSGTDYSLTIINLEPEDIATYYCQQFSKLPFTFGSGTKLEIR

>  <kon, M⁻¹ s⁻¹>
645000

$$$$

I would be grateful if you could share the reported kon for 24F10 chimeric antibody (antibody, V domains shown, chimeric mAb) VH: EVQLVESGGGLVKPGGSLKLSCAASGFTFSDYGMHWVRQAPEKGLEWVAYISSGTSTIYYTDTVKGRFTISRDNAKNTLFLQMTSLRSEDTAMYYCARGGDGYYRSTMDYWGQGISVTVSS VL: DIVLTQSPASLAVSLGQRATISCRASQSVSSSSYSYMHWYQQKPGQPPKLLIKSASNLASGVPARFSGSGSGTDFTLNIHPVEEEDSATYYCQHSWEVPRTFGGGTKLEIK .
418000

Hey, just so you know, these numbers are from patent US20250154277A1.
